# ASSAYED TARGET: Stp1 (UniProt B3LFK1)
# Sequence: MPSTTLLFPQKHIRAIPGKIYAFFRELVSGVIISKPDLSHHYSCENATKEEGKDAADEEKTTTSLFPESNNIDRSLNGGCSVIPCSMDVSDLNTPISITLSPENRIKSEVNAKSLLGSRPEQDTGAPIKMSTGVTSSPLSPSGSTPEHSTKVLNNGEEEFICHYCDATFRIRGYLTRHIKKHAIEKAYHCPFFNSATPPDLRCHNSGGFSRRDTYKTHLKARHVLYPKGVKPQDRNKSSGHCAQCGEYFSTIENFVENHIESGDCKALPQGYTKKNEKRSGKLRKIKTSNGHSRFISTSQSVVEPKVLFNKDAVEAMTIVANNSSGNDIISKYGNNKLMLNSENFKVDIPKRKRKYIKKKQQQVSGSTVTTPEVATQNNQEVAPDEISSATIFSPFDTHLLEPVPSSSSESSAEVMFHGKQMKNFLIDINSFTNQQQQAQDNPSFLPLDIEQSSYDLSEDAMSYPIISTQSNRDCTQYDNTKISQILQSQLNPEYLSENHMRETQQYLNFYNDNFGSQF
# ASSAY COMMENT: PBM E-score (8-mer binding enrichment) (E-score (-0.5 to 0.5)); higher = stronger / more preferred TF binding
# SETTINGS: protein concentration: 200 nM; construct: GST-full length
Whole data set: some 33,000 sequences, median “E-score (-0.5 to 0.5)” near -0.016, cut for the highest 2% near 0.32. What follows is part of a selection rich in the highest values, with near analogues and random picks from the rest.
PROPERTY: PBM E-score
Numbers only.

Examples with their reported PBM E-score follow.
1) CTCACCCC | 0.0927
2) GCTTTGGA | 0.103
3) GAAGGTGA | 0.0707
4) CGCCTCGA | 0.205
5) CAAGCCCA | -0.0787
6) AGTTCAAT | -0.0607

Working through the 5 sequences below one at a time, give PBM E-score for each.
1. CGCAAGTC
2. GTCCTGTA
3. CGCCTCGC
4. ACAGGCAC
5. AGCCTCGC

1: -0.309; 2: -0.121; 3: 0.394; 4: -0.047; 5: 0.0691

###

# ASSAYED TARGET: Stp1 (UniProt B3LFK1)
# Sequence: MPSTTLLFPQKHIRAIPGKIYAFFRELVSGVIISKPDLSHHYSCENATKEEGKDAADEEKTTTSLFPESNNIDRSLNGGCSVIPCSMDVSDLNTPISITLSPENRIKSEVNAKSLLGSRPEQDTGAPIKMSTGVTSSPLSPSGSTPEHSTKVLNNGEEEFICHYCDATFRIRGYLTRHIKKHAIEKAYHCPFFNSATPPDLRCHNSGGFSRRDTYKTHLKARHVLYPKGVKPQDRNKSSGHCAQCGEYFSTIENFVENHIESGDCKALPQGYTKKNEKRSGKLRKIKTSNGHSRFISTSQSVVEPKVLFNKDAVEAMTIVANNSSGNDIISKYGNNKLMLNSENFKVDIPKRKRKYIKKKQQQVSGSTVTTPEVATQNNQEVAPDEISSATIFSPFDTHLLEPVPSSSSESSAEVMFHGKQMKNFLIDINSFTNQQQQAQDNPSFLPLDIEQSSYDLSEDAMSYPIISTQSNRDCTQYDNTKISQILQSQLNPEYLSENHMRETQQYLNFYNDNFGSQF
# ASSAY COMMENT: PBM E-score (8-mer binding enrichment) (E-score (-0.5 to 0.5)); higher = stronger / more preferred TF binding
# SETTINGS: protein concentration: 200 nM; construct: GST-full length
The full ranking holds about 33,000 sequences; the median of “E-score (-0.5 to 0.5)” is about -0.016, and the highest 2% start at about 0.32. The sample as a whole holds a higher share of the highest values than the screen did.
Rule: PBM E-score of -0.06 or more gives fulfilled; anything lower gives not fulfilled.

Example entries begin here.
1. GAAAACGC | fulfilled
2. ACAGGGCA | fulfilled
3. TAGGCACA | fulfilled
4. TTGAACAA | fulfilled

Turning to the following sequence.
Test whether the sequence `ATGAGAGG` records PBM E-score of -0.06 or higher.
not fulfilled

###

# ASSAYED TARGET: Stp1 (UniProt B3LFK1)
# Sequence: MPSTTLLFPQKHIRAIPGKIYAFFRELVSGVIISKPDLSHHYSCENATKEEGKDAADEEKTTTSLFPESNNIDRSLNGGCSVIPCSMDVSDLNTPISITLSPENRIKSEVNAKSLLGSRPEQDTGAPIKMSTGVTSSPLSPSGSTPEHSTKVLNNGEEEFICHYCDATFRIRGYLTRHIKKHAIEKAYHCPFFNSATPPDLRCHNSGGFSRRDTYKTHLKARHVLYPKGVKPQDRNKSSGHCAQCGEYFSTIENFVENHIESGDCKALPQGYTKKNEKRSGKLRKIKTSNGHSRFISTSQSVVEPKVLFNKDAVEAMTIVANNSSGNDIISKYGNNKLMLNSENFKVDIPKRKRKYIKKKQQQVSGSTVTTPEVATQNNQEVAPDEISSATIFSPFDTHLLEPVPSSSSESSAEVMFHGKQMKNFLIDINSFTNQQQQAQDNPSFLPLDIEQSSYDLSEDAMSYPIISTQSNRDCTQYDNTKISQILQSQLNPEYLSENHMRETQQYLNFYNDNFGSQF
# ASSAY COMMENT: PBM E-score (8-mer binding enrichment) (E-score (-0.5 to 0.5)); higher = stronger / more preferred TF binding
# SETTINGS: protein concentration: 200 nM; construct: GST-full length
In all, about 33,000 sequences were measured (“E-score (-0.5 to 0.5)”: median about -0.016, highest 2% from about 0.32 on). Shown is part of a subset that was picked to be rich in the highest values.
Rule: PBM E-score of 0.2 or more gives 1.0; anything lower gives 0.0.

1) AGACTCAG | 0.0

Test whether the sequence `CAAGGCTA` records PBM E-score of 0.2 or higher.
1.0

Test whether the sequence `ACGAGGAT` records PBM E-score of 0.2 or higher.
0.0

Test whether the sequence `ACGAGGGA` records PBM E-score of 0.2 or higher.
0.0

Test whether the sequence `ATCATAAC` records PBM E-score of 0.2 or higher.
0.0

Test whether the sequence `ATGTGGCA` records PBM E-score of 0.2 or higher.
1.0

Test whether the sequence `ACGTGCGA` records PBM E-score of 0.2 or higher.
0.0

Test whether the sequence `CCGAGGCG` records PBM E-score of 0.2 or higher.
1.0

###

# ASSAYED TARGET: Stp1 (UniProt B3LFK1)
# Sequence: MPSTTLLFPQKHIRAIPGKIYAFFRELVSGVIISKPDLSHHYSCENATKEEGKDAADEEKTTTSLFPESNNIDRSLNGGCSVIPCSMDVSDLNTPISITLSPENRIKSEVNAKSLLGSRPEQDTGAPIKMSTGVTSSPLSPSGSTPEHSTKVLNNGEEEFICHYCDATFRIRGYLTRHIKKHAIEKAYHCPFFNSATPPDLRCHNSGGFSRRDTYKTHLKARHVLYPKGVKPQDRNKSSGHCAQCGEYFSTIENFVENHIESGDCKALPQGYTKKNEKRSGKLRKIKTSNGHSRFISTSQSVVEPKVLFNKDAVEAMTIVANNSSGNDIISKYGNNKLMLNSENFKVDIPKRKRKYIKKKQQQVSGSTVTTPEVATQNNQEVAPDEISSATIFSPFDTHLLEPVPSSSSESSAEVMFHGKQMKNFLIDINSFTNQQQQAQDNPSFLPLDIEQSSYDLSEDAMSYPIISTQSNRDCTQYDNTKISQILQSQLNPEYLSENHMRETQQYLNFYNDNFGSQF
# ASSAY COMMENT: PBM E-score (8-mer binding enrichment) (E-score (-0.5 to 0.5)); higher = stronger / more preferred TF binding
# SETTINGS: protein concentration: 200 nM; construct: GST-full length
In all, about 33,000 sequences were measured (“E-score (-0.5 to 0.5)”: median about -0.016, highest 2% from about 0.32 on). This is one part of a sample in which the highest values are shown more often than they occur.
PROPERTY: PBM E-score
One number for each entry.

Examples with their reported PBM E-score follow.
1. CGCTTACA | 0.0771
2. CCGCACGG | 0.448
3. CTGGCGCA | -0.0136
4. CAGCTAAG | -0.153
5. AAAGGTAC | -0.00049
6. CCGCGGCC | 0.325
7. ATCAGGGA | -0.201
8. CGGGAGAA | -0.111

Working through the 7 sequences below one at a time, give PBM E-score for each.
1. CCACTGGA
2. CCGCACAA
3. GCGCATCC
4. AGTCGCCC
5. CCCGGCTA
6. AACGGCTC
7. ACGCACGC

1. -0.241
2. 0.285
3. 0.0373
4. -0.174
5. -0.148
6. 0.407
7. 0.265

Working through the 8 sequences below one at a time, give PBM E-score for each.
1. AGGGCGAC
2. CAGCACGA
3. GCTGCGAC
4. ATCGTCTG
5. GAGCGGCC
6. CATCGCCC
7. CTGGAGGC
8. GCGCGGAA

0.015
-0.0106
-0.089
0.0798
0.156
-0.0878
-0.0215
0.263

Working through the 5 sequences below one at a time, give PBM E-score for each.
1. ATCGAGTG
2. CAAGCCCG
3. GCAACAGC
4. GCGCGGGA
5. CAGGCGTC

1. 0.141
2. -0.0901
3. 0.0755
4. 0.163
5. -0.00022

Working through the 8 sequences below one at a time, give PBM E-score for each.
1. AACATTCT
2. AGTCGCCA
3. CCAAGAGC
4. GGGCCTGA
5. ACACCGAA
6. TACACACA
7. GAAACGAC
8. ATAAAGGA

1. 0.215
2. -0.199
3. 0.0254
4. -0.296
5. 0.0644
6. 0.202
7. 0.0801
8. -0.201

Working through the 2 sequences below one at a time, give PBM E-score for each.
1. CGAACAGA
2. CGGCGATC

0.0325
0.373

Working through the 3 sequences below one at a time, give PBM E-score for each.
1. CTATGCCC
2. CAGCGATC
3. GAAGCTGC

1. -0.0982
2. -0.127
3. -0.188

Working through the 7 sequences below one at a time, give PBM E-score for each.
1. CAGTCAAC
2. CGACTAGC
3. AATCGCCT
4. ATGAGAAT
5. GTTTCTCA
6. ACTCCAGG
7. AAACGCTT

1. -0.139
2. -0.13
3. 0.302
4. 0.146
5. -0.115
6. -0.175
7. -0.0887

Working through the 7 sequences below one at a time, give PBM E-score for each.
1. ACCGGCTG
2. AGGTAGCG
3. CACGGCTC
4. CCCTTCTC
5. ACGGCGCA
6. ATCCGTCA
7. ATGAGCTG

[-0.0577, -0.105, 0.469, -0.259, 0.482, -0.0596, -0.175]
